system: HCC-2998 colon; assay: NCI tumour cell line growth inhibition, 48 h
reported property: GI50

Examples from the recorded data:
COC(=O)C12C3C4C1C1C2C3C41NC(=O)c1csc([C@@H](C[C@H](C(C)C)N(C)C(=O)[C@@H](NC(=O)[C@H]2CCCCN2C)C2CC2)OC(C)=O)n1 (stereo partly drawn); 146 nM
Cc1ccc2c3c(c(=O)[nH]c2c1)C1(C(C#N)=C(N)O3)c2cc(Br)ccc2-c2ccc(Br)cc21; 2150 nM

Okay, now this molecule:
Qu. Answer with reported GI50 of Cc1ccc(NC(=O)c2sc3nc(C)c(C(O)c4ccccc4)cc3c2N)cc1 (stereo not drawn)
Ans. 818 nM

---

test system: LOX IMVI melanoma; assay: NCI tumour cell line growth inhibition, 48 h; in the data active means GI50 below about 0.43 µM; inactive means the rest
Thanks in advance; please answer with one of these: label 1 for active, label 0 for inactive

COC(=O)C12C3C4C1C1C2C3C41NC(=O)c1csc([C@@H](C[C@H](C(C)C)N(C)C(=O)[C@@H](NC(=O)[C@H]2CCCCN2C)C2CC2)OC(C)=O)n1 (some centres undefined); label 1
Cc1ccc2c3c(c(=O)[nH]c2c1)C1(C(C#N)=C(N)O3)c2cc(Br)ccc2-c2ccc(Br)cc21; label 0
Cc1cc(O)c(C(C)(C)C)cc1Sc1cc(C(C)(C)C)c(O)cc1C; label 0
O=C(/C=C\n1cnc(-c2cc(C(F)(F)F)cc(C(F)(F)F)c2)n1)NNc1cnccn1; label 1
COc1ccc(OC)c(C(=O)c2oc3ccc(Br)cc3c2N)c1; label 0

Qu. In this assay, the call recorded for COc1cc(NS(=O)(=O)c2ccc(-c3cnc(C4CC4)o3)cc2)ccc1F was what?
Ans. label 0

Qu. Check the results log: what was the call for Cc1ccc2[nH]c(C(=O)NN3C(=O)C(C)SC34CCCC(C)C4)c(-c3ccccc3)c2c1 (centres undefined) ?
Ans. label 0

Qu. Field: outcome | Entry: CC(=O)O.[Au].c1ccc([PH+](c2ccccc2)c2ccccc2)cc1
Ans. label 0

Qu. Test call, this compound: CCOC(=O)c1c(C)nc2c(c1N)/C(=C/c1ccc(OC)cc1)C(=O)N2Cc1ccc(F)cc1
Ans. label 1

---

system: NCI-H23 lung; test: NCI tumour cell line growth inhibition, 48 h
reported property: TGI

COC(=O)[C@H](Cc1c[nH]c2ccccc12)NC(=O)[C@@H](OC)[C@@H]1Cc2cc3cc(OC4CC(OC5CC(O)C(O)C(C)O5)C(O)C(C)O4)c(C)c(O)c3c(O)c2C(=O)[C@H]1OC1CC(OC2CC(OC3CC(C)(O)C(O)C(C)O3)C(O)C(C)O2)C(O)C(C)O1 (stereo partly drawn); 0.0506 µM
CCc1ccc(Nc2ccc([N+](=O)[O-])cc2[N+](=O)[O-])cc1; > 100 µM
CN(C)/C=N/S(=O)(=O)c1nn2c(C=O)c(-c3ccc(Cl)cc3)nc2s1; 9.81 µM
COc1ccc(/C=C\c2cc(OC)c(OC)c(OC)c2)cc1OC(=O)NCCN(C)C; 0.00431 µM
C=C(CC[C@@H](C)[C@H]1CC[C@@]2(C)C3=C(CC[C@]12C)[C@@]1(C)CC[C@H](O)[C@@H](C)C1CC3)C(C)C (stereo partly drawn); 2.51 µM
N#Cc1c(-c2ccccc2)cc(Nc2cccc(C(F)(F)F)c2)n2c1nc1ccccc12; 3.63 µM
Cc1ccc(NC(=S)N/N=C(/c2ccccc2)c2ccccn2)cc1; 26.7 µM

Let us move to another entry and its TGI.
Qu. Find the measured TGI of COc1ccc2c3c(coc13)C(CCC(=O)O)CC2 (stereo not drawn) with NCI-H23 lung as test system.
Ans. > 100 µM

---

system: HL-60(TB) leukemia; assay: NCI tumour cell line growth inhibition, 48 h
reported property: TGI

Qu. Write down TGI measured for item CC(C)c1ccc(C(c2ccc(OCC(=O)O)cc2)c2ccc(C(C)C)cc(=O)c2O)c(O)c(=O)c1
Ans. 15 µM

Qu. Note down TGI recorded for COc1cccc(N2C(=O)[C@H]3CC(C)c4c([nH]c5ccccc45)[C@H]3C2=O)c1 (stereo partly drawn)
Ans. > 100 µM

Qu. Give TGI for COc1ccc(CCN2CCN(CCc3ccc(OC)cc3)CC2)cc1
Ans. > 100 µM

---

tested on: SK-MEL-2 melanoma; experiment: NCI tumour cell line growth inhibition, 48 h
reported property: TGI

Take a look at these entries with their results.
N#CCc1ccc(C(C#N)/C(CCCC(=O)Nc2cccc([N+](=O)[O-])c2)=N/NC(N)=S)cc1 (stereo not given); > 100 µM
CCCS(=O)(=O)/C(=C(\c1ccc(Br)cc1)S(=O)(=O)CCC)c1ccc(Br)cc1; > 10 µM
CCOC(=O)C1(C(=O)OCC)C[C@H](C)[C@](C)(O)C1; > 100 µM
NC(N)=N/N=C/c1c(-c2cccc([N+](=O)[O-])c2)nc2n1CCS2; 34 µM
O=C(/C=C/c1c(O)ccc2ccccc12)c1ccccc1; > 100 µM

Qu. Using the record for COc1cc2c(c(OC)c1)C1(CC(CC#N)C2)SCCS1 (stereo not given) , state its measured TGI.
Ans. > 100 µM

Qu. Given Cc1nc(-c2ccccc2)c(-c2ccccc2)s1 , respond with its TGI.
Ans. 32.8 µM

Qu. Please give the documented TGI of CN(/N=C/c1ccc(OCc2cccc(COc3ccc(C=O)cc3)n2)cc1)c1cnn(-c2ccc(Cl)cc2Cl)c(=O)c1Cl
Ans. > 100 µM

Qu. Answer with the recorded TGI for the compound listed here: CNc1nc2n(CCO)c(-c3ccccc3)c(-c3ccccc3)nc-2c(=O)n1
Ans. > 50 µM

Qu. // Input: CCOC(=O)CCn1[nH]c(=O)c(Cl)c(Cl)c1=O . Output its TGI only.
Ans. > 100 µM

---

test system: SW-620 colon; assay: NCI tumour cell line growth inhibition, 48 h
Where a SMILES comes first, the peptide text is derived from it. The star is where a group is joined. Cbz = O=C(OCc1ccccc1)*; Boc = CC(C)(C)OC(=O)*; tBu = CC(C)(C)*
The entries below come with measured TGI values attached.

These solved cases illustrate the format of a correct answer.
Cc1ccc(/C=C2\CCC/C(=C\c3ccc(O)c(CN4CCCCC4)c3)C2=O)cc1; 17.7 µM
CC(OC(C)(C)C)C(NC(=O)C(CCCCNC(=O)OC(C)(C)C)NC(=O)C(Cc1c[nH]c2ccccc12)NC(=O)C(Cc1ccccc1)NC(=O)OCc1ccccc1)C(=O)NC(Cc1ccccc1)C(=O)O (centres undefined) (Cbz-FWK(Boc)T(tBu)F-OH; configuration not given here); > 100 µM
C/C(=C1/CCC/C(=C(/C)c2ccccc2)C1=O)c1ccccc1; > 100 µM
Cc1ccc(NC(=O)c2cccc(OP(=O)(O)Nc3ccc(C)cc3)c2)cc1; > 100 µM
CCOC(=O)C(O)(NC(=O)c1ccc(F)cc1)C(F)(F)F (centres undefined); > 100 µM

Qu. # return recorded TGI for entry COc1cc(/C=C2\N=C(c3ccccc3)N(c3nc4c(OC)ccc(OC)c4s3)C2=O)ccc1O
Ans. > 100 µM

---

system: NCI-H226 lung; assay: NCI tumour cell line growth inhibition, 48 h; in the data active means GI50 below about 0.43 µM; inactive means the rest
Use one of these outcomes when replying: yes for active, no for inactive

Qu. // return assay outcome for Cc1ccc(NC(=O)c2sc3nc(C)c(C(O)c4ccccc4)cc3c2N)cc1 (configuration not stated)
Ans. no

Qu. Give the logged outcome of this assay for the following compound: COc1ccc2nc3cc(Cl)ccc3c(NCCN)c2c1
Ans. no

Qu. What did the test return for COc1cc2c3c(n(CCCCOC(=O)C(Cl)(Cl)Cl)c(=O)c2cc1OC)-c1cc2c(cc1C3=O)OCO2 ?
Ans. no

Qu. Any idea what this test logged for COc1cc(NS(=O)(=O)c2ccc(-c3cnc(C4CC4)o3)cc2)ccc1F ?
Ans. no

Qu. Recorded call for COC(=O)c1c(C)[nH]c(/C=C2\N=C(c3ccc[nH]3)C=C2OC)c1C ?
Ans. no

Qu. How did this test come out for COc1cc2c3c(n(C)c(=O)c2cc1OC)-c1cc2c(cc1/C3=C\CNCCCN)OCO2 ?
Ans. yes

Qu. Hello, I am checking results. What call was entered for O=C1/C(=C/c2ccc(O)cc2)CSc2ccc(Cl)cc21 ?
Ans. no

Qu. # lookup: test call for CCCCCN(CCCCC)CC(O)c1ccc(Cl)c2ccccc12 (configuration not stated)
Ans. no

Qu. In this assay, the call recorded for CC[CH2][Sn]([Cl])([Cl])[CH2]CC.Oc1ccccc1C=NCCN=Cc1ccccc1O was what?
Ans. no

Qu. Status in this test for C=C[C@H]1C[C@@H]2C[C@@H]3[C@H]4C/C=C\C(=O)NCCCC5NC(=O)C(=C(O)/C=C/[C@@H]4CC(=O)[C@H]3[C@@H]2[C@H]1C)C5=O (some centres not stated) ?
Ans. yes

Qu. What is the recorded call for this compound in the test? COc1cc2c3c(n(CCNCCCNCCn4c5c(c6cc(OC)c(OC)cc6c4=O)C(=O)c4ccccc4-5)c(=O)c2cc1OC)-c1ccccc1C3=O
Ans. yes

Qu. // return assay outcome for Cn1c2ccccc2c2c3[nH]c(=O)[nH]c(=O)c3c3c4ccccc4n(C)c3c21
Ans. no
